- Experimental system: Recombinant human calpain I (Homo sapiens)
- Construct: made in house
- Test description: Inhibition of calpain I (Succ-Leu-Tyr-MNA hydrolysis)
- Assay type: biochemical
- Cond: Tables 2-4; values in parentheses; at 10,000 nM
I'd appreciate it if you could supply inhibition at 10 µM values for the items below.
The response must be a number in % with no trailing unit.

QUERY: Endpoint output: inhibition at 10 µM of O=C(NCC1CC1)C(=O)C(Cc1ccccc1)NC(=O)c1cc(C#Cc2ccccc2)nc2ccccc12 (stereo not shown) . Value?
RESULT: 100

QUERY: Endpoint output: inhibition at 10 µM of COC(CNC(=O)C(=O)C(CC(C)C)NC(=O)c1cc(C#Cc2ccccc2)nc2ccccc12)OC (stereo not shown) . Value?
RESULT: 92

QUERY: Endpoint output: inhibition at 10 µM of CN(C)NC(=O)C(=O)C(Cc1ccccc1)NC(=O)c1cc(C#Cc2ccccc2)nc2ccccc12 (stereo not shown) . Value?
RESULT: 43

QUERY: Endpoint output: inhibition at 10 µM of COc1ccc(C(=O)NCCNC(=O)C(=O)C(Cc2ccccc2)NC(=O)c2cc(C#Cc3ccccc3)nc3ccccc23)cc1 (stereo not shown) . Value?
RESULT: 71

QUERY: Endpoint output: inhibition at 10 µM of O=C(NCCCCCO)C(=O)C(Cc1ccccc1)NC(=O)c1cc(C#Cc2ccccc2)nc2ccccc12 (stereo not shown) . Value?
RESULT: 98

QUERY: Endpoint output: inhibition at 10 µM of O=C(NCCNC(=O)[C@@H]1CCCN1S(=O)(=O)c1ccccc1)C(=O)C(Cc1ccccc1)NC(=O)c1cc(C#Cc2ccccc2)nc2ccccc12 (stereo partly shown) . Value?
RESULT: 94

QUERY: Endpoint output: inhibition at 10 µM of CC(C)CC(NC(=O)c1cc(C#Cc2ccccc2)nc2ccccc12)C(=O)C(=O)NCCNS(=O)(=O)c1ccccc1 (stereo not shown) . Value?
RESULT: 82

----------
- Experimental system: Recombinant human calpain I (Homo sapiens)
- Construct: made in house
- Test description: Inhibition of calpain I (Succ-Leu-Tyr-MNA hydrolysis)
- Format: biochemical
- Cond: Tables 2-4; pH 7.5
Readout name: pIC50
Lab note: report pIC50 as minus log10 of the concentration in molar units, number only.

QUERY: Endpoint output: pIC50 of CC(=O)NCCNC(=O)C(=O)C(Cc1ccccc1)NC(=O)c1cc(C#Cc2ccccc2)nc2ccccc12 (stereo not shown) . Value?
RESULT: 6.85

QUERY: Endpoint output: pIC50 of O=C(NCCS(=O)(=O)Nc1ccccc1)C(=O)C(Cc1ccccc1)NC(=O)c1cc(Cl)nc2ccccc12 (stereo not shown) . Value?
RESULT: 7.09

QUERY: Endpoint output: pIC50 of O=C(NCCNC(=O)C(=O)C(Cc1ccccc1)NC(=O)c1cc(C#Cc2ccccc2)nc2ccccc12)NC12CC3CC(CC(C3)C1)C2 (stereo not shown) . Value?
RESULT: 6.59

QUERY: Endpoint output: pIC50 of `O=C(NCc1ccccc1)C(=O)[C@H](Cc1ccccc1)NC(=O)c1cc(C#Cc2ccccc2)nc2ccccc12` . Value?
RESULT: 7.10

----------
- Experimental system: Recombinant human calpain I (Homo sapiens)
- Construct: made in house
- Sequence (P07384 1-714): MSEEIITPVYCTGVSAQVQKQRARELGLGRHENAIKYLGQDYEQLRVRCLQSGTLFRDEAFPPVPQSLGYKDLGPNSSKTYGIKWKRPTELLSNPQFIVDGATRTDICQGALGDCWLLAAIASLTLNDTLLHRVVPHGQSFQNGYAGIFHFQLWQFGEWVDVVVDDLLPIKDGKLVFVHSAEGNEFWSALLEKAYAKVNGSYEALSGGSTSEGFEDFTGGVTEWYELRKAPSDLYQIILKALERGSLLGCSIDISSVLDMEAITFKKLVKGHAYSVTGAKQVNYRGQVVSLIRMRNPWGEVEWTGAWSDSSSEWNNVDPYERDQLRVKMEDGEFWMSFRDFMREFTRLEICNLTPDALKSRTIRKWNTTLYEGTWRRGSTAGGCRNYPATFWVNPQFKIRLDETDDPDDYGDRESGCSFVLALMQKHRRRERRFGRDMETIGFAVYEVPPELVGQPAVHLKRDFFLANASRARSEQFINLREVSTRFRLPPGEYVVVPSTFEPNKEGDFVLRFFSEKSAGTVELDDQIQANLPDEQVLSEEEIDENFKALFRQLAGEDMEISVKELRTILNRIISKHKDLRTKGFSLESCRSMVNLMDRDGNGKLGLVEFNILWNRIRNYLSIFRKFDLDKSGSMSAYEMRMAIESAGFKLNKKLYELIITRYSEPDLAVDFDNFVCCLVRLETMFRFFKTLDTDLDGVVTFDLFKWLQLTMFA
- Test description: Inhibition of calpain I (Succ-Leu-Tyr-MNA hydrolysis)
- Format: biochemical
- Cond: Table 5; head prints no unit
I'd appreciate it if you could supply IC50 values for the items below.

QUERY: Endpoint output: IC50 of CCCCC(NC(=O)c1cc(Cl)nc2ccccc12)C(=O)C(=O)NCCNS(=O)(=O)c1ccc(-c2ccccn2)s1 (stereo not shown) [Example 155] . Value?
RESULT: 31 nM

QUERY: Endpoint output: IC50 of CCCC(NC(=O)c1cc(Cl)nc2ccccc12)C(=O)C(=O)NCCNS(=O)(=O)c1ccc(-c2ccccn2)s1 (stereo not shown) [Example 156] . Value?
RESULT: 43 nM

QUERY: Endpoint output: IC50 of CCCCC(NC(=O)c1cc(Cl)nc2ccccc12)C(=O)C(=O)NCCNS(=O)(=O)c1ccc([N+](=O)[O-])cc1 (stereo not shown) [Example 149] . Value?
RESULT: 23 nM

QUERY: Endpoint output: IC50 of CCCCC(NC(=O)c1cc(Cl)nc2ccccc12)C(=O)C(=O)NCCNS(=O)(=O)c1ccc(Cl)c(Cl)c1 (stereo not shown) [Example 151] . Value?
RESULT: 217 nM

QUERY: Endpoint output: IC50 of O=C(NCCNS(=O)(=O)c1ccc(-c2ccccn2)s1)C(=O)C(Cc1ccccc1)NC(=O)c1nc(-c2ccccc2)nc2ccccc12 (stereo not shown) [Example 154] . Value?
RESULT: 83 nM

QUERY: Endpoint output: IC50 of COCC(NC(=O)c1cc(Cl)nc2ccccc12)C(=O)C(=O)NCCNS(=O)(=O)c1ccc(-c2ccccn2)s1 (stereo not shown) [Example 157] . Value?
RESULT: 61 nM

QUERY: Endpoint output: IC50 of CCCC(NC(=O)c1cc(Cl)nc2ccccc12)C(=O)C(=O)NCCNS(=O)(=O)c1ccc(Cl)c(Cl)c1 (stereo not shown) [Example 152] . Value?
RESULT: 325 nM

----------
- Experimental system: Recombinant human calpain I (Homo sapiens, UniProt P07384)
- Construct: made in house
- Test description: Inhibition of calpain I (Succ-Leu-Tyr-MNA hydrolysis)
- Format: biochemical
- Cond: Tables 2-4; values in parentheses; at 10,000 nM
Readout name: inhibition at 10 µM (%)
The response must be a number in % with no trailing unit.

QUERY: Endpoint output: inhibition at 10 µM of O=C(NCC1CCCO1)C(=O)C(Cc1ccccc1)NC(=O)c1cc(C#Cc2ccccc2)nc2ccccc12 (centres unmarked) . Value?
RESULT: 84

QUERY: Endpoint output: inhibition at 10 µM of O=C(NCCNS(=O)(=O)c1ccccc1)C(=O)C(Cc1ccccc1)NC(=O)c1ccnc2ccccc12 (single isomer, unassigned) . Value?
RESULT: 97

QUERY: Endpoint output: inhibition at 10 µM of COC(=O)C(CCCCNC(=O)C(=O)C(Cc1ccccc1)NC(=O)c1cc(C#Cc2ccccc2)nc2ccccc12)NC(=O)OC(C)(C)C (centres unmarked) . Value?
RESULT: 97

QUERY: Endpoint output: inhibition at 10 µM of CC(C)(C)OC(=O)N=C(NCCCCC(CO)NC(=O)C(=O)C(Cc1ccccc1)NC(=O)c1cc(C#Cc2ccccc2)nc2ccccc12)NC(=O)OC(C)(C)C (centres unmarked) . Value?
RESULT: 42

QUERY: Endpoint output: inhibition at 10 µM of C=C(C)C(=O)OCCNC(=O)C(=O)C(Cc1ccccc1)NC(=O)c1cc(C#Cc2ccccc2)nc2ccccc12 (centres unmarked) . Value?
RESULT: 95

QUERY: Endpoint output: inhibition at 10 µM of CC(C)CC(NC(=O)c1cc(C#Cc2ccccc2)nc2ccccc12)C(=O)C(=O)NCCNC(=O)Nc1ccccc1 (centres unmarked) . Value?
RESULT: 89

QUERY: Endpoint output: inhibition at 10 µM of N#CCCNC(=O)C(=O)C(Cc1ccccc1)NC(=O)c1cc(C#Cc2ccccc2)nc2ccccc12 (centres unmarked) . Value?
RESULT: 95

QUERY: Endpoint output: inhibition at 10 µM of O=C(NCCCn1ccnc1)C(=O)C(Cc1ccccc1)NC(=O)c1cc(C#Cc2ccccc2)nc2ccccc12 (centres unmarked) . Value?
RESULT: 84
